measured_target: 5α-reductase
method_description: In vitro enzyme assay of 5α-reductase referred to in the discussion
Format: biochemical
condition_summary: Hiipakka and Liao, unpublished results
parameter_measured: IC50

Please report the measured IC50 for `O=C1c2ccccc2C(=O)c2c1ccc(O)c2O`
5 to 10 µM

====

measured_target: type 2 human 5α-reductase (Homo sapiens)
Sequence (P31213 whole entry): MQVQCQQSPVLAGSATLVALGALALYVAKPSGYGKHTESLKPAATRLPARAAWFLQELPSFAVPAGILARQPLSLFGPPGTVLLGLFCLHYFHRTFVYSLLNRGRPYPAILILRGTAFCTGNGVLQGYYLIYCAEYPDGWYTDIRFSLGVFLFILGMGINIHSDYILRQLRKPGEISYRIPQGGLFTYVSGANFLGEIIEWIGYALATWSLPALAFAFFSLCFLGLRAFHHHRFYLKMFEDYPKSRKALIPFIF
method_description: Cell-free enzymatic assay of 5α-reductase (testosterone to DHT), type 2
Format: biochemical
Parameters: expressed in transfected cells; host or cells: rat 1A cells infected with pMV7 retrovirus and selected with G418; microsomes for the cell-free assay
condition_summary: microsomes from rat 1A cells expressing human type 2 5α-reductase; read-out: Cell-free assay IC50, 5α-reductase Type 2
parameter_measured: IC50 (µM)
Hi! Could you send only the number? It should be in µM, unit omitted.

Illustrative cases are given below, each with its answer.
INSERT INTO measurements (molecule, obs_value) VALUES
  ('COc1cc(/C=C/CO)ccc1O [Coniferol, coniferyl alcohol]', 100),
  ('CC/C=C\C/C=C\C/C=C\CCCCCCCC(=O)O [Alpha-Linolenic Acid, Alpha-Linolenic Acid C18:3 CIS 9,12,15]', 9),
  ('C=CCc1ccc(O)c(OC)c1 [Eugenol]', 100);

Proceeding to the next molecule to report its IC50.
Return reported IC50. Input molecule: O=C1C=CC(=C(c2ccc(O)c(O)c2)c2ccccc2S(=O)(=O)O)C=C1O (mixture of isomers) [Pyrocatechol violet, pyrocatecholsulfonephthalein]
100
